PROTOCOL TEXT: Water solubility, shake flask method, 0.1 M phosphate buffer pH 6.8
Type: physicochemical
CONDITION DESCRIPTION: 37 °C, pH 6.8, aqueous buffer, thermodynamic from solid
Field: solubility at 24 h. Provide a value for each of the molecules that follow.
Please reply with the bare figure in µM and do not write the unit itself.

[in] Data request, read-out solubility at 24 h, for `COc1cc(/C=C/C(=O)/C=C(O)/C=C/c2cccnc2)ccc1O`
[out] 14.5

[in] Data request, read-out solubility at 24 h, for `O=C(/C=C(O)/C=C/c1ccncc1)/C=C/c1c[nH]c2ccccc12`
[out] 7.7

[in] Data request, read-out solubility at 24 h, for `COc1cc(/C=C/c2cc(/C=C/c3cccc4cnccc34)[nH]n2)ccc1O`
[out] 7

[in] Data request, read-out solubility at 24 h, for `O=C(/C=C(O)/C=C/c1ccc2ccccc2n1)/C=C/c1c[nH]c2ccccc12`
[out] 9.6

[in] Data request, read-out solubility at 24 h, for `COc1cc(/C=C/C(=O)/C=C(O)/C=C/c2ccncc2)ccc1O`
[out] 12.8

[in] Data request, read-out solubility at 24 h, for `O=C(/C=C(O)/C=C/c1ccccn1)/C=C/c1c[nH]c2ccccc12`
[out] 7.9

[in] Data request, read-out solubility at 24 h, for `COc1cc(/C=C/C(=O)/C=C(O)/C=C/c2ccccn2)ccc1O`
[out] 11.6

[in] Data request, read-out solubility at 24 h, for `O=C(/C=C(O)/C=C/c1cccnc1)/C=C/c1c[nH]c2ccccc12`
[out] 5.4

[in] Data request, read-out solubility at 24 h, for `COc1cc(/C=C/C(=O)/C=C(O)/C=C/c2cccc3cnccc23)ccc1O`
[out] 1.4

[in] Data request, read-out solubility at 24 h, for `O=C(/C=C(O)/C=C/c1cccs1)/C=C/c1c[nH]c2ccccc12`
[out] 1.25

[in] Data request, read-out solubility at 24 h, for `C(=C\c1c[nH]c2ccccc12)/c1cc(/C=C/c2cccs2)[nH]n1`
[out] 11.7

[in] Data request, read-out solubility at 24 h, for `O=C(/C=C(O)/C=C/c1ccc[nH]1)/C=C/c1c[nH]c2ccccc12`
[out] 12

[in] Data request, read-out solubility at 24 h, for `COc1cc(/C=C/c2cc(/C=C/c3cccnc3)[nH]n2)ccc1O`
[out] 7.7

[in] Data request, read-out solubility at 24 h, for `COc1cc(/C=C/C(=O)/C=C(O)/C=C/c2ccc[nH]2)ccc1O`
[out] 18.3

[in] Data request, read-out solubility at 24 h, for `COc1cc(/C=C/C(=O)/C=C(O)/C=C/c2ccnc3ccccc23)ccc1O`
[out] 4.4

[in] Data request, read-out solubility at 24 h, for `COc1cc(/C=C/c2cc(/C=C/c3ccncc3)[nH]n2)ccc1O`
[out] 12.8

[in] Data request, read-out solubility at 24 h, for `COc1cc(/C=C/C(=O)/C=C(O)/C=C/c2c[nH]c3ccccc23)ccc1O`
[out] 13.2
